Values from the NTF2 design screens of Basanta et al. (2020)

assay.info: protease stability score; higher = more stable; yeast display proteolysis, trypsin and chymotrypsin;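 note: relative to predicted unfolded state with 0 unfolded-like and 1 meaning tenfold more protease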
Use 2 as the dividing line for protease stability score, with the line itself on the Y side and lower values as N.

Prompt: Would you say DEEERQLEEFLELLVEALRTGDWHTLMRMLDPNVKVHIDGKDIHGREEHIRLHIEQWERLGYERIEFRVRIDEVHFINGVVEVDYTQIDQFDGQRLQLRVRIFLLKFDGRWSIDKVVFR shows protease stability score at minimum 2?
Completion: Y

Prompt: Tell me whether protease stability score is at least 2 here: REDEQDLRKFVEDLIHSLKTGDEDSTSRLLDPHVRVEIGDKEFVGREDFTRLMVETVRRYDHIRFDLRRVEDIDGKAHIHGHIYIRVNGVWHHKEVEIIIDKINGKWVIRELRVK
Completion: Y

Prompt: Quick check: does DEKEHELTRMIRMIETLLRTGDFEELEKLMDPDVRLDIDGKHLVGRHDLREFFLELGVKHTDTKEIHVIGDKAFLHTEIHVDGRTTKVIIIMHKINGRWIITSTHIRHH have protease stability score greater than or equal to 2?
Completion: N

Prompt: Hi, just wondering whether DEETNLSKLVMEISLELLETGDEEHIHRFVDPHARTILFIDGREEQVHGREQASKWIMWTVKFLGVDHIEVEDTKIVNGVAHLNIRMEVGDKRLTSHFTSEKVNGKWLIKDIRIRID shows protease stability score of 2 or higher.
Completion: N

Prompt: Does the sequence TEEEKDSDDAFRHWVHSMRTGDEDRLRELIDPNARLLVNGRELHGMEWIITILSKEIKELRFKDVRLRDRDIVGNYAEVDVEIDMTIGEKEDSRDVVIFVLKVNGRWVIKEMHIR have recorded protease stability score that is 2 or more?
Completion: N
